MEASURED TARGET: cMet-Fc fusion protein (Homo sapiens)
Sequence (P08581 25-307 limits assumed): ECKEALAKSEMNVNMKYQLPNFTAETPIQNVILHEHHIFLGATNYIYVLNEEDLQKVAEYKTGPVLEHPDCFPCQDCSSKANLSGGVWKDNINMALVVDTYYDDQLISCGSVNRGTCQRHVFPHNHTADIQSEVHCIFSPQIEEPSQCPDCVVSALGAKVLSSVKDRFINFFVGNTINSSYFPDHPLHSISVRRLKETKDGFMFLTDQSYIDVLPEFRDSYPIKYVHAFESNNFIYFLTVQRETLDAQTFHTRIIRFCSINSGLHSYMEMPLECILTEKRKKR
Sequence (P08581 with tags, fused parts or gaps limits assumed): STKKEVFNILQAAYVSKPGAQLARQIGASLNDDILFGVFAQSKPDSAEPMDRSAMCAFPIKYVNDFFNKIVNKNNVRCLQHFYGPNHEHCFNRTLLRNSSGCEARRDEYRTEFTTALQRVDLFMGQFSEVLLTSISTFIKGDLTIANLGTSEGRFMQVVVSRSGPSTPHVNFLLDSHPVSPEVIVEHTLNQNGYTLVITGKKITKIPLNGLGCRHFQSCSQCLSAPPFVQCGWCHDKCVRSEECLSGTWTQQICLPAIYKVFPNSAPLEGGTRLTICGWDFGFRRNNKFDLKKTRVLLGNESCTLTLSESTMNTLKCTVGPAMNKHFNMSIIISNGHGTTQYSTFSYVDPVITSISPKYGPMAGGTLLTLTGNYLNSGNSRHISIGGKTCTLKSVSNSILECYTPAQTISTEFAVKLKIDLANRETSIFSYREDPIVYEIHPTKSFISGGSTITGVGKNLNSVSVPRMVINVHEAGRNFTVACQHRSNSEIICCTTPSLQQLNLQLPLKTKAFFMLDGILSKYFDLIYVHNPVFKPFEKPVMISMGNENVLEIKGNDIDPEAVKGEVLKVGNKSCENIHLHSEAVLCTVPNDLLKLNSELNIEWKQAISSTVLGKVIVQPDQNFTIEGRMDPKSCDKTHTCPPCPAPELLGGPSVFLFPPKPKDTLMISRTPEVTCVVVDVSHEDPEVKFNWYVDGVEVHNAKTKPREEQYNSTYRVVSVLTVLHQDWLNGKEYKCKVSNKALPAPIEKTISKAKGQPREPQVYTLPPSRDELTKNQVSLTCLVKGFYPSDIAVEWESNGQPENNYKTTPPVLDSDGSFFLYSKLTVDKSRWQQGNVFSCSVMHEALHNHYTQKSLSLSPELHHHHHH
ASSAY COMMENT: Protein phage ELISA: peptide-displaying phage binding to soluble cMet-Fc versus TRAIL-Fc
ASSAY CONDITIONS: phage isolate; cMet-Fc vs. TRAIL-Fc
RECORDED ENDPOINT: Protein ELISA (fold over background)
Write down the numeric answer in fold over background and omit the unit.

Please give the measured Protein ELISA for this sequence: AGETVCYWLNGWFCVDDGT (Synthetically generated cMet-binding peptide sequence) [SEQ ID NO: 073]
7.8

Please give the measured Protein ELISA for this sequence: GSFWNCTTDLGAMSDCGFFAP (Synthetically generated cMet-binding peptide sequence) [SEQ ID NO: 383]
3.1

Please give the measured Protein ELISA for this sequence: AQFMYEKEHYVMSISLPGLWFY (Synthetically generated cMet-binding peptide sequence) [SEQ ID NO: 486]
3.0

Please give the measured Protein ELISA for this sequence: AGHYWCAGPPTFICMGPGT (Synthetically generated cMet-binding peptide sequence) [SEQ ID NO: 062]
10.2

Please give the measured Protein ELISA for this sequence: AQVGESLDDGWTFFSDKWFDFF (Synthetically generated cMet-binding peptide sequence) [SEQ ID NO: 485]
3.0

Please give the measured Protein ELISA for this sequence: AGLLGCWDMPMECTGEGT (Synthetically generated cMet-binding peptide sequence) [SEQ ID NO: 036]
3.6

Please give the measured Protein ELISA for this sequence: AGFWDCGWMMQDCHMHGT (Synthetically generated cMet-binding peptide sequence) [SEQ ID NO: 045]
3.9

Please give the measured Protein ELISA for this sequence: AGWYNCSGENFWNCKWIGT (Synthetically generated cMet-binding peptide sequence) [SEQ ID NO: 082]
14.3

Please give the measured Protein ELISA for this sequence: AGSIACTGWPYFSCIDLGT (Synthetically generated cMet-binding peptide sequence) [SEQ ID NO: 088]
5.6

Please give the measured Protein ELISA for this sequence: AGGHWCLELKHLCPPYGT (Synthetically generated cMet-binding peptide sequence) [SEQ ID NO: 044]
4.1

Please give the measured Protein ELISA for this sequence: AGDWICHGPPMFECEWVGT (Synthetically generated cMet-binding peptide sequence) [SEQ ID NO: 058]
15.9

Please give the measured Protein ELISA for this sequence: AGHFECPKHQYMCDMPGT (Synthetically generated cMet-binding peptide sequence) [SEQ ID NO: 042]
3.1

Please give the measured Protein ELISA for this sequence: ADAWMCEYFQWNCGDKGT (Synthetically generated cMet-binding peptide sequence) [SEQ ID NO: 046]
4.5

###

Record form. Attribute: Protein ELISA. Fill in for each entry.
MEASURED TARGET: cMet-Fc fusion protein (Homo sapiens)
ASSAY COMMENT: Protein phage ELISA: peptide-displaying phage binding to soluble cMet-Fc versus TRAIL-Fc
ASSAY CONDITIONS: phage isolate; cMet-Fc vs. TRAIL-Fc
Write down the numeric answer in fold over background and omit the unit.

Please give the measured Protein ELISA for this sequence: AGWGWCSGPPMFMCTEYGT (Synthetically generated cMet-binding peptide sequence) [SEQ ID NO: 099]
4.0

Please give the measured Protein ELISA for this sequence: AGYWHCKGPPHFACEFHGT (Synthetically generated cMet-binding peptide sequence) [SEQ ID NO: 077]
5.5

Please give the measured Protein ELISA for this sequence: GDHLTCEFRDDGWKEHCWWSDP (Synthetically generated cMet-binding peptide sequence) [SEQ ID NO: 403]
11.1

Please give the measured Protein ELISA for this sequence: AGHGTCRGWPTFECIYFGT (Synthetically generated cMet-binding peptide sequence) [SEQ ID NO: 064]
6.0

Please give the measured Protein ELISA for this sequence: AGYSVCKGYPSFECAFFGT (Synthetically generated cMet-binding peptide sequence) [SEQ ID NO: 075]
5.8

Please give the measured Protein ELISA for this sequence: GSILYCINRNDPQCPYTAP (Synthetically generated cMet-binding peptide sequence) [SEQ ID NO: 101]
3.0

Please give the measured Protein ELISA for this sequence: GDHRKCEISAKTHEVTCYDNDP (Synthetically generated cMet-binding peptide sequence) [SEQ ID NO: 402]
5.2

Please give the measured Protein ELISA for this sequence: AQDNTADQMFNGFHVLAMYMV (Synthetically generated cMet-binding peptide sequence) [SEQ ID NO: 481]
3.3

Please give the measured Protein ELISA for this sequence: AQFSGLVMYGRTHEVQWTFGSM (Synthetically generated cMet-binding peptide sequence) [SEQ ID NO: 477]
3.5

Please give the measured Protein ELISA for this sequence: AQAYEWWADESIFNHGYYWGHQ (Synthetically generated cMet-binding peptide sequence) [SEQ ID NO: 470]
3.8

Please give the measured Protein ELISA for this sequence: AGAFFCSGPPTFMCSLYGT (Synthetically generated cMet-binding peptide sequence) [SEQ ID NO: 098]
6.2

Please give the measured Protein ELISA for this sequence: AGSWECTGPPSFHCQWYGT (Synthetically generated cMet-binding peptide sequence) [SEQ ID NO: 070]
3.9

Please give the measured Protein ELISA for this sequence: GSFNICPYQWCTLWAP (Synthetically generated cMet-binding peptide sequence) [SEQ ID NO: 010]
3.0
